# System: 317291-083-R-J1-PDC complex spheroids, viability;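 further: spheroids exposed to compounds for one week before readout; percent viability relative to DMSO vehicle wells taken as 100%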
# measurement description: Anticancer human tumor 317291-083-R-J1-PDC patient-derived soft tissue sarcoma cell line growth inhibition [GQUAD]
# stated conditions: second compound 10 µM; first compound 3.16 µM; hits give low values

[
  {
    "molecule": "CCCS(=O)(=O)Nc1ccc(F)c(C(=O)c2c[nH]c3ncc(-c4ccc(Cl)cc4)cc23)c1F + CN(C)c1ccc(Nc2c3ccc(NC(=O)CCN4CCCC4)cc3nc3cc(NC(=O)CCN4CCCC4)ccc23)cc1",
    "viability, T/C, %": 0.46
  },
  {
    "molecule": "O=C(NO)c1cnc(N2CCN(S(=O)(=O)c3ccc4ccccc4c3)CC2)nc1 + CN(C)c1ccc(Nc2c3ccc(NC(=O)CCN4CCCC4)cc3nc3cc(NC(=O)CCN4CCCC4)ccc23)cc1",
    "viability, T/C, %": 0.28
  },
  {
    "molecule": "CC(C)(O)C1CCC(Nc2ccc3ncc(-c4cccc(C(F)(F)F)c4)n3n2)CC1 (stereo not given) + Cc1cnc(CNC(=O)c2c(=O)c3ccc(N4CCCN(C)CC4)nc3n3c2sc2ccccc23)cn1",
    "viability, T/C, %": 0.21
  },
  {
    "molecule": "Nc1ccn(C2OC(CO)C(O)C2(F)F)c(=O)n1 (stereo not given) + Cc1cnc(CNC(=O)c2c(=O)c3ccc(N4CCCN(C)CC4)nc3n3c2sc2ccccc23)cn1",
    "viability, T/C, %": 5.09
  },
  {
    "molecule": "CC(C)(O)C1CCC(Nc2ccc3ncc(-c4cccc(C(F)(F)F)c4)n3n2)CC1 (stereo not given) + Cc1[nH]c2ccc(F)cc2c1-c1nc2c3cccnc3c3ncccc3c2[nH]1",
    "viability, T/C, %": 0.55
  }
]
